Data provenance is ChEMBL document CHEMBL1152638.

Test: Cytotoxicity against human LoVo cells
Type: cell-based
Conditions: read-out: MIC
reported.metric: MCC (µg/mL)
Numeric only. Scale: µg/mL

Request the reported MCC associated with COc1c(C#N)c2c3ccccc3[nH]c2c2c1c1ccccc1n2C
5

* * *

Experiment: Cytotoxicity against human KB cells
Format: cell-based
Conditions: read-out: MIC
reported.metric: MCC (µg/mL)
Write down the numeric answer in µg/mL and omit the unit.

If you can, please state the reported MCC value of COc1c(C#N)c2c3ccccc3[nH]c2c2c1c1ccccc1n2C .
5
